System: DIV14
Assay: qHTS profiling for inhibitors of Plasmodium falciparum proliferation (AID 504749); further: nearly all actives have a fitted effect of over 60% in size
Conditions: P. falciparum in erythrocytes, SYBR Green DNA, 72 h; series mostly up to 28.7 µM
Procedure: NIH National Institute of Allergy and Infectious Diseases [NIAID] NIH Chemical Genomics Center [NCGC] […] Because mature erythrocytes lack DNA, only Plasmodium-derived DNA is detected. NCGC Assay Protocol Summary: The SYBR Green viability assay was adapted from a method described previously (Plouffe et al., 2008). […] The following morning, fluorescence intensity at 485(14) nm excitation and 535(25) nm emission wavelengths was measured on an EnVision (Perkin Elmer) plate reader. […]
Inconclusive results are not listed. The source made the active and inactive calls. The call rests on the fitted dose curve; in most records, active means well fitted inhibition curve with a large enough effect; inconclusive means small, poorly fitted or top-dose-only effect; inactive means flat fitted curve, though single readings scatter.
Outcomes: yes (active), no (inactive)

COMPOUND: CC(=O)Nc1ccc(OCC(O)CNC(C)C)cc1 (stereo not drawn)
LABEL CLASS: no

COMPOUND: Cc1c(-c2ccccc2)oc2c(C(=O)OCCN3CCCCC3)cccc2c1=O
LABEL CLASS: no

COMPOUND: O=C(O)C1(C(=O)O)CCC1.[NH2-].[NH2-].[Pt+2]
LABEL CLASS: no

COMPOUND: Cc1cccc(C)c1NC(=O)CN1CCCC1
LABEL CLASS: no

COMPOUND: CN1CCc2cccc3c2[C@H]1Cc1ccc(O)c(O)c1-3
LABEL CLASS: yes

COMPOUND: CCNC(=O)NCc1cccc(Cl)c1
LABEL CLASS: no

COMPOUND: O=C(Nc1ncc([N+](=O)[O-])s1)c1cccs1
LABEL CLASS: no

COMPOUND: CC(=O)Nc1ccc(OC(=O)c2ccccc2OC(C)=O)cc1
LABEL CLASS: no

COMPOUND: O=C(O)c1ccc(S(=O)(=O)N(Cl)Cl)cc1
LABEL CLASS: no

COMPOUND: CN(CCCN1c2ccccc2CCc2ccccc21)CC(=O)c1ccc(Cl)cc1
LABEL CLASS: yes

COMPOUND: CC[C@H](c1ccc(O)cc1)[C@@H](CC)c1ccc(O)cc1
LABEL CLASS: no

COMPOUND: CCOc1ccccc1C(N)=O
LABEL CLASS: no

COMPOUND: O=C(O)Cc1csc(-c2ccc(Cl)cc2)n1
LABEL CLASS: no

COMPOUND: NCc1ccccc1Sc1ccccc1CO
LABEL CLASS: yes

COMPOUND: CC[N+](C)(CC)CCOC(=O)C(O)(c1ccccc1)C1CCCCC1 (stereo not drawn)
LABEL CLASS: no

COMPOUND: Cc1c[nH]c2ccccc12
LABEL CLASS: no

COMPOUND: CCCN(CCc1cccs1)[C@H]1CCc2c(O)cccc2C1
LABEL CLASS: yes

COMPOUND: CN1CCN(CCC(=O)N2c3ccccc3Sc3ccc(C(F)(F)F)cc32)CC1
LABEL CLASS: yes

###

Tested on: CP250
Test: qHTS profiling for inhibitors of Plasmodium falciparum proliferation (AID 504749); further: nearly all actives have a fitted effect of over 60% in size
Conditions: P. falciparum in erythrocytes, SYBR Green DNA, 72 h; series mostly up to 28.7 µM
Inconclusive results are not listed. Active and inactive are the calls of the source. The call rests on the fitted dose curve; in most records, active means well fitted inhibition curve with a large enough effect; inconclusive means small, poorly fitted or top-dose-only effect; inactive means flat fitted curve, though single readings scatter.
Outcomes: TRUE (active), FALSE (inactive)

COMPOUND: O=C1C(=O)c2ccccc2C(O)=C1C1CCC(c2ccc(Cl)cc2)CC1 (configuration not stated)
LABEL CLASS: TRUE
//
COMPOUND: NCc1ccccc1Sc1ccccc1CO
LABEL CLASS: FALSE
//
COMPOUND: COc1ccccc1N1CCN(CCCCNC(=O)c2ccc(-c3ccc(C(C)=O)cc3)cc2)CC1
LABEL CLASS: FALSE
//
COMPOUND: CCCCC(CC)COC(=O)c1ccc(N(C)C)cc1 (configuration not stated)
LABEL CLASS: FALSE
//
COMPOUND: CC(=O)NC(=O)c1ccccc1O
LABEL CLASS: FALSE
//
COMPOUND: CC(=O)OCC(=O)[C@H]1CC[C@H]2[C@@H]3CCC4=CC(=O)CC[C@]4(C)[C@H]3CC[C@]12C
LABEL CLASS: FALSE
//
COMPOUND: CCNC(=O)NCc1cccc(Cl)c1
LABEL CLASS: FALSE
//
COMPOUND: CCC1Nc2cc(Cl)c(S(N)(=O)=O)cc2S(=O)(=O)N1 (configuration not stated)
LABEL CLASS: FALSE
//
COMPOUND: O[C@@H](c1cc(C(F)(F)F)nc2c(C(F)(F)F)cccc12)[C@H]1CCCCN1
LABEL CLASS: TRUE
//
COMPOUND: COc1cc(C(=O)NCc2ccc(OCCN(C)C)cc2)cc(OC)c1OC
LABEL CLASS: FALSE
//
COMPOUND: CCOCCn1c(N2CCCN(C)CC2)nc2ccccc21
LABEL CLASS: FALSE
//
COMPOUND: CCOC(=O)c1c(N)sc2c1CCN(Cc1ccccc1)C2
LABEL CLASS: TRUE
//
COMPOUND: Oc1ccc(Cl)cc1Cc1cc(Cl)ccc1O
LABEL CLASS: FALSE
//
COMPOUND: CC[C@H](c1ccc(O)cc1)[C@@H](CC)c1ccc(O)cc1
LABEL CLASS: FALSE
//
COMPOUND: CCc1ccc(C(=O)C(C)CN2CCCCC2)cc1 (configuration not stated)
LABEL CLASS: FALSE
//
COMPOUND: COc1ccc(CCN(C)CCCN2CCc3cc(OC)c(OC)cc3CC2=O)cc1OC
LABEL CLASS: FALSE
//
COMPOUND: CC(=O)Nc1ccc(CC(=O)O)cc1
LABEL CLASS: FALSE
//
COMPOUND: O=S(c1cc(Cl)cc(Cl)c1O)c1cc(Cl)cc(Cl)c1O
LABEL CLASS: TRUE
//
COMPOUND: CCCCCCCCCCCCSCCOCCO
LABEL CLASS: FALSE
//
COMPOUND: O=C1C(O)=C(O)C(=O)C(O)=C1O
LABEL CLASS: FALSE
//
COMPOUND: CN1CCN(c2c(F)cc3c(=O)c(C(=O)O)cn4c3c2SCC4)CC1
LABEL CLASS: FALSE
//
COMPOUND: Nc1ccc(C(=O)NCC(=O)O)cc1
LABEL CLASS: FALSE
//
COMPOUND: CO[C@]12C[C@@H](COC(=O)c3cncc(Br)c3)CN(C)[C@@H]1Cc1cn(C)c3cccc2c13
LABEL CLASS: FALSE
//
COMPOUND: CN1CCN(CCC(=O)N2c3ccccc3Sc3ccc(C(F)(F)F)cc32)CC1
LABEL CLASS: FALSE
//
COMPOUND: C#C[C@]1(O)CC[C@H]2[C@@H]3CCc4cc(OC)ccc4[C@H]3CC[C@@]21C
LABEL CLASS: FALSE
//
COMPOUND: CCOC(=O)c1ccc(N)cc1
LABEL CLASS: FALSE
//
COMPOUND: O=C1C(CCS(=O)c2ccccc2)C(=O)N(c2ccccc2)N1c1ccccc1 (configuration not stated)
LABEL CLASS: FALSE
//
COMPOUND: Nc1nc(N)c(-c2ccccc2)s1
LABEL CLASS: FALSE
//
COMPOUND: NCCNC(=O)c1ccc(Cl)cn1
LABEL CLASS: FALSE
//
COMPOUND: CCN(CC)CCNc1ccc(CO)c2sc3ccccc3c(=O)c12
LABEL CLASS: TRUE
//
COMPOUND: CCN1/C(=C/C=C/c2sc3ccccc3[n+]2CC)Sc2ccccc21
LABEL CLASS: TRUE
//
COMPOUND: O=[N+]([O-])c1cccc(S(=O)(=O)NCCNS(=O)(=O)c2cccc([N+](=O)[O-])c2)c1
LABEL CLASS: FALSE

###

Tested on: OV90
Assay: Primary qHTS to identify gynecologic anti-cancer compounds using libraries of approved drugs and bioactive compounds (AID 1345084); further: nearly all actives have a fitted effect of over 55% in size
Conditions: Gynecologic cancer cell panel viability, ATPlite luminescence, 48 h; series mostly up to 57.5 µM
Inconclusive results are not listed. Activity calls are given as the source filed them. Calls come from the whole dose curve; as a rule, active = well fitted cell-killing curve with a large enough effect; inconclusive = small, poorly fitted or top-dose-only effect, or effect the other way; inactive = flat fitted curve, though single readings scatter.
Outcomes: true (1) = active, false (0) = inactive

COMPOUND: NC(=O)n1c(O)c(C(=O)c2cccs2)c2cc(Cl)ccc21
LABEL CLASS: false (0)

COMPOUND: N/C(=N\N=C\c1ccc(Cl)cc1)N/N=C/c1ccc(Cl)cc1
LABEL CLASS: false (0)

COMPOUND: Nc1nc(N)c(-c2ccccc2)s1
LABEL CLASS: false (0)

COMPOUND: CC(=O)Nc1ccc(OCC(O)CNC(C)C)cc1 (centres undefined)
LABEL CLASS: false (0)

COMPOUND: CC(C)NCC(O)c1ccc2ccccc2c1 (centres undefined)
LABEL CLASS: false (0)

COMPOUND: CCCCCCCCOc1ccc(C(=O)c2ccccc2)c(O)c1
LABEL CLASS: false (0)

COMPOUND: Cc1ccccc1OCC(O)CO (centres undefined)
LABEL CLASS: false (0)

COMPOUND: O=C(Nc1ncc([N+](=O)[O-])s1)c1cccs1
LABEL CLASS: true (1)

COMPOUND: Cc1cc2c(OCC(CNC(C)(C)C)OC(=O)c3ccccc3)cccc2[nH]1 (centres undefined)
LABEL CLASS: false (0)

COMPOUND: Nc1ccc(S(=O)(=O)NCc2ccccc2)cc1
LABEL CLASS: false (0)

COMPOUND: CN(Cc1ccc(C(C)(C)C)cc1)Cc1cccc2ccccc12
LABEL CLASS: false (0)

COMPOUND: COc1ccc(CN(CCN(C)C)c2ncccn2)cc1
LABEL CLASS: false (0)

COMPOUND: CC(=O)OCC1=C(C(=O)O)N2C(=O)[C@@H](NC(=O)CSc3ccncc3)[C@H]2SC1
LABEL CLASS: false (0)

COMPOUND: OC[C@H]1O[C@@H](Oc2ccc(O)cc2)[C@H](O)[C@@H](O)[C@@H]1O
LABEL CLASS: false (0)

COMPOUND: CCOC(=O)[C@H](CCc1ccccc1)N[C@@H](C)C(=O)N1[C@H](C(=O)O)C[C@@H]2CCC[C@@H]21
LABEL CLASS: false (0)

COMPOUND: FC1(F)C(F)(F)C(F)(F)C2(F)C(F)(F)C(F)(F)C(F)(F)C(F)(F)C2(F)C1(F)F (centres undefined)
LABEL CLASS: false (0)

COMPOUND: Nc1ccc(S(=O)(=O)Nc2cnc3ccccc3n2)cc1
LABEL CLASS: false (0)

COMPOUND: Cc1ccc(S(=O)(=O)NC(=O)NC2CCCC2)cc1
LABEL CLASS: false (0)

COMPOUND: COc1ccc(/C=N/NC(=O)c2ccncc2)cc1OC
LABEL CLASS: false (0)

COMPOUND: CCc1oc2ccccc2c1C(=O)c1cc(Br)c(O)c(Br)c1
LABEL CLASS: false (0)

COMPOUND: COc1ccc(C(Cl)=C(c2ccc(OC)cc2)c2ccc(OC)cc2)cc1
LABEL CLASS: false (0)

COMPOUND: Cl/C(=C\n1cncn1)c1ccc(Cl)cc1Cl
LABEL CLASS: false (0)

COMPOUND: CCOc1cc(OCC)c(C(=O)CCC(=O)O)cc1OCC
LABEL CLASS: false (0)

COMPOUND: Cc1ccc(-c2ncc(Cl)cc2-c2ccc(S(C)(=O)=O)cc2)cn1
LABEL CLASS: false (0)
